- System: UO-31 renal
- procedure.details: NCI-60 one-dose screen, 48 h (100 = growth as untreated, 0 = no growth, -100 = all killed)
- measurement.conditions: 10 µM unless noted
The panel holds about 83,000 compounds, 20% with a hit somewhere; the sample as a whole holds those more often.
Measured growth, listed per entry.
measure.name: growth (%)

>>> print(df.to_string())
                                   compound  endpoint_unit  observed_measurement
0  O=C(Cn1cc(CSc2nc3ccccc3o2)nn1)Nc1ccc(F)cc1F              %                   103
1  CC(C)=CCCC(C)c1ccc(C)c2c1OCN(CCCCCO)C2 (stereo unspecified)              %                    57
2  O=C(CN1C(=O)NC2NC(=O)NC21)N/N=C/c1ccccc1[N+](=O)[O-] (stereo unspecified)              %                  87.8
3  Nc1ncnc2c1c(-c1cccc(Cl)c1)nn2CC(=O)N1CCOCC1              %                  80.7
4  NC(=O)c1cccc(-n2ccc3cc(NC(=O)c4ccc(N5CCOCC5)c(C(F)(F)F)c4)ccc32)n1              %                  36.5
5  Nc1ncnc2c1N=C(c1ccc(Br)cc1)CC(c1cccc(Nc3ccnc4cc(C(F)(F)F)ccc34)c1)N2 (stereo unspecified)              %                  47.2

###

- System: NCI-H226 lung
- procedure.details: NCI-60 one-dose screen, 48 h (100 = growth as untreated, 0 = no growth, -100 = all killed)
- measurement.conditions: 10 µM unless noted
This is part of a sample that, as a whole, favours compounds with a hit. Of some 83,000 tested, about 20% had one in any assay.
# if measured growth < 50%: 1.0  # else: 0.0

compound	qualitative.label
C=C1CC[C@@H]2[C@](C)(COC(C)=O)[C@H](OC(C)=O)CC[C@@]2(C)[C@@H]1CC(Nc1ccc(S(=O)(=O)Nc2ncccn2)cc1)C1=CCOC1=O (some centres not stated)	1.0
N#CC1=C(N)Oc2c(ccc3ccccc23)C1c1ccccc1 (configuration not stated)	0.0
COc1cc2c(cc1OCCCN1CCN(CCCOc3cc4c(cc3OC)C(=O)N3CCC[C@H]3C=N4)CC1)C=CC(C)(C)O2	1.0
COc1ccc(CN2c3ccccc3Sc3ccccc32)cc1F	1.0
NC(=O)c1c(NC(=O)c2ccc3ccccc3c2)sc2c1CCC(=O)C2	0.0
CCc1ncnc2c1ccn2C(C)c1ccc(OC)c(F)c1 (configuration not stated)	0.0
Cc1cc(N2CCN(CC(=O)Nc3ccc4c(ccn4C)c3)CC2)nc(N2CCCCCC2)n1	0.0
O=C1c2ccc3c4c5ccc(c24)C(=O)N1CCCOCCCCOCCCNCc1ccc(cc1)CNCCCOCCCCOCCCN(C3=O)C5=O	0.0
C=CCc1c(O)c(C(=O)/C=C/c2ccccc2)c(OC)c2ccoc12	1.0
Nc1c(C(=O)Nc2ccccc2C(F)(F)F)sc2nc3c(cc12)CCC3	0.0
COc1ccc(C(=O)/C=C/c2c(C(F)(F)F)nc3ccccn23)cc1OC	0.0

###

Listing of entries alongside the reported growth.
- Test system: RPMI-8226 leukemia
- procedure.details: NCI-60 one-dose screen, 48 h (100 = growth as untreated, 0 = no growth, -100 = all killed)
- measurement.conditions: 10 µM unless noted
This is part of a sample that, as a whole, favours compounds with a hit. Of some 83,000 tested, about 20% had one in any assay.
measure.name: growth (%)

>>> df
                                    molecule  measure_name  endpoint_unit  observed_measurement
 0        COc1ccc(CNc2c3ccccc3nc3ccccc23)cc1        growth              %                  15.8
 1  N#C/C(=C\c1c(-c2ccccc2)[nH]c2ccccc12)C(N)=O        growth              %                  46.2
 2  c1csc(-c2ccc(CNc3c4ccccc4nc4ccccc34)cc2)c1        growth              %                 -44.4
 3  CCOC(=O)c1cc2c(n1C)-c1nc(NC(C)=O)sc1CCC2        growth              %                    79
 4  CC(O)(c1ccccc1)C(c1ccccc1)C1CCCCN1 (stereo not given)        growth              %                   102
 5  CCCCCCCCCCC(CN(CC)CC)C(O)c1ccccc1 (stereo not given)        growth              %                  9.59
 6  CC(C)c1ccc(Cc2cnc(NC(=O)c3cc(Br)cs3)s2)cc1        growth              %                  22.6
 7  Nc1ncnc2c1c(-c1cccc(Cl)c1)nn2CC(=O)N1CCOCC1        growth              %                   108
 8  C=C1C(=O)O[C@H]2[C@H]1CC/C(COC(=O)C(=O)c1cn(C)c3ccc(Cl)cc13)=C\CC[C@@]1(C)O[C@@H]21        growth              %                 -33.7
 9  Nc1nc(-c2ccc(Cl)cc2)nc2c1sc(=S)n2-c1ccccc1        growth              %                  45.5
10  C=CC(=O)N1CCN(c2cccc(Oc3nccc(Nc4nnc(-c5ccc(Br)cc5)s4)n3)c2)CC1        growth              %                  50.4
11  CC1CN(S(=O)(=O)c2oc(-c3ccc(Cl)cc3)nc2C#N)CC(C)O1 (stereo not given)        growth              %                  24.2
12  CNc1nnc2n(-c3ccccc3)c(=O)c3cnn(-c4ccccc4)c3n12        growth              %                  85.3
13  O=C1/C(=C/c2cn(-c3ccccc3)nc2-c2ccccc2)SC(=S)N1C1CCCCC1        growth              %                   114
14  CCOC(=O)c1cc2c(n1Cc1cc(OC)c(OC)c(OC)c1)-c1nc(N)sc1CCC2        growth              %                  75.9
15  COc1cc(NS(=O)(=O)c2ccc(-c3cnc(C4CC4)o3)cc2)ccc1F        growth              %                  20.2
16  N#Cc1c(-c2ccccc2)cc(-c2ccccc2)n(CCCC(=O)Nc2ccccc2N)c1=O        growth              %                  48.9
17  COc1c(B(O)O)cccc1-c1cc(C)c2c(ccc3[nH]ncc32)n1        growth              %                  68.7
18  CCN1C(=S)N(c2ccccc2)C2NC(=S)N(/N=C/C=C/c3ccccc3OC)C21 (stereo not given)        growth              %                  13.3
19  O=S(=O)(Nc1ccc(F)cc1F)c1ccc(-c2cnc(C3CC3)o2)cc1        growth              %                  18.1
20                CCSc1nc2scc(C)c2c(=O)[nH]1        growth              %                   101
21  CCCNc1nc2ccccc2c2c1S(=O)(=O)c1ccc(Cl)cc1C2=O        growth              %                 -10.2
22  COc1ccc(-c2noc(C(=O)O)c2-c2cc(OC)c(OC)c(OC)c2)cc1        growth              %                  0.35
23                     CCSC(SCC)c1ccc(Cl)cc1        growth              %                   106
24   COc1cc(OC)c(NC(=O)c2cc3ccccc3cc2O)cc1Cl        growth              %                  7.51
25  CN1C(=O)/C(=C\c2nc([P+](c3ccccc3)(c3ccccc3)c3ccccc3)c(N3CCOCC3)o2)SC1=S        growth              %                 -21.1
26  CC(C)=CCC[C@](C)(O)[C@H]1CC[C@]2(C)[C@@H]1CC[C@@H]1[C@@]3(C)C/C(=C/c4ccco4)C(=O)C(C)(C)[C@@H]3CC[C@]12C        growth              %                   101
27  OCCn1cc(-c2nc(-c3c[nH]c4ncccc34)cs2)c2ccccc21        growth              %                  57.8
28  CCCCCCCCCCCCCCCCCCOc1ccccc1CC(=O)OCC[N+](C)(C)C        growth              %                  40.9
29           CCOCCNC1=C(Cl)C(=O)c2ccccc2C1=O        growth              %                  90.4
